Target: CCR2 (Homo sapiens, UniProt P41597)
Construct: Membranes were prepared from THP-1 cells; endogenous in cells; host or cells: THP-1 cells (membrane preparation)
Sequence (P41597 1-360 isoform P41597-2): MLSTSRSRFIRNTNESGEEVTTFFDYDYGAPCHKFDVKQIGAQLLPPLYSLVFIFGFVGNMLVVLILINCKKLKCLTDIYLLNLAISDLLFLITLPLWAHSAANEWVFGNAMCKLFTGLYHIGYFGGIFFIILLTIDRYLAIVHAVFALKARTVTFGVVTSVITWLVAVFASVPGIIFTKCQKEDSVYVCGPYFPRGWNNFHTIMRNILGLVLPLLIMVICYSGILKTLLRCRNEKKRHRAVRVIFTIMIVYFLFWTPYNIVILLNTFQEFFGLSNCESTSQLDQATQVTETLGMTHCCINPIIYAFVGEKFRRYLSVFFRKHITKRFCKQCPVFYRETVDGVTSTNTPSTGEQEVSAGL
Assay: CCR2 receptor membrane binding assay ([125I]MCP-1, THP-1 cell membranes, SPA beads)
Details: @ 10 μM test compound; THP-1 membranes; read-out: CCR2 % ctrl @ 10 μM
Hi! Just check whether remaining activity at 10 µM is below 20%. Below gives True, equal or above gives False.

Answered cases to consult:
{"columns": ["molecule", "class assignment"],
 "data": [
  ["Cc1nc(NCCc2ccc(Cl)c(Cl)c2)c(C)c(C(=O)N2CCC(N3CCC(O)CC3)CC2)n1 [Example 91]", "False"],
  ["Cc1cc(CNc2ncnc(C(=O)N3CCC(N4CCC(O)CC4)CC3)c2C)ccc1F [Example 118]", "False"],
  ["Cc1c(NCc2ccc(Cl)c(Cl)c2)ncnc1C(=O)N1CCC(N2CCC(F)(F)CC2)CC1 [Example 244]", "False"],
  ["Cc1c(NCC2COc3ccccc3C2)ncnc1C(=O)N1CCC(N2CCC(NS(C)(=O)=O)CC2)CC1 (stereo not shown) [Example 71]", "True"],
  ["Cc1c(NCC2CCN(c3ccccc3)CC2)ncnc1C(=O)N1CCC(N2CCCCC2)CC1 [Example 130]", "False"],
  ["Cc1c(NCCc2ccc(Cl)c(Cl)c2)ncnc1C(=O)N1CCC(N2CCC(O)C2)CC1 (stereo not shown) [Example 241]", "False"],
  ["CCc1c(NCCc2ccc(Cl)c(Cl)c2)ncnc1C(=O)N1CCC(N2CCC(O)CC2)CC1 [Example 280]", "False"],
  ["Cc1c(NCc2ccc(C(C)C)cc2)ncnc1C(=O)N1CCC(N2CCC(N(C)S(C)(=O)=O)CC2)CC1 [Example 64]", "True"]
]}

query: Below 20% on remaining activity at 10 µM? Entry CN(C1CCN(C2CCN(C(=O)c3ncnc(NCc4ccc(C(C)(C)C)cc4)c3C#N)CC2)CC1)S(C)(=O)=O [Example 249]
result: False

query: Identify whether the molecule Cc1c(NCC2Cc3ccccc3C2)ncnc1C(=O)N1CCC(N2CCC(N(C)S(C)(=O)=O)CC2)CC1 [Example 61] records remaining activity at 10 µM below 20%.
result: True

query: Does Cc1c(NCc2ccc(C(C)(C)C)cc2)ncnc1C(=O)N1CCC(N2CCC(O)CC2)CC1 [Example 7] have remaining activity at 10 µM strictly under 20%?
result: True

query: Item Cc1c(NCc2ccc(F)c(Cl)c2)ncnc1C(=O)N1CCC(N2CCCCC2)CC1 [Example 128] : remaining activity at 10 µM beneath 20%, strictly?
result: False
